src = ChEMBL document CHEMBL3885861

Organism: Rattus norvegicus
assay_info: Open TG-GATES - Regimen: Daily Repeat
Assay type: toxicity, organism-based, Sprague-Dawley
Design: regimen Daily Repeat, gender Male, age 6 weeks
measurement_setup: in vivo, po, 0 mg/kg, […], tissue Blood, route gavage, dose level Control, time 7 day
Listed here are compounds together with their documented Ret.
// return numeric value only (unit: %, not printed)

Below, 8 compounds whose answers are already recorded.
INSERT INTO assay_data (compound, observed_value) VALUES
  ('Cc1cccc(C)c1OCC(C)N (centres undefined)', 6),
  ('C[C@H]1O[C@H](O[C@H]2[C@H](O)[C@@H](O)[C@@H](O[C@H]3[C@H](O)[C@@H](O)C(O)O[C@@H]3CO)O[C@@H]2CO)[C@H](O)[C@@H](O)[C@@H]1N[C@H]1C=C(CO)[C@@H](O)[C@H](O)[C@H]1O (some centres undefined)', 6.5),
  ('O=C1CN(/N=C/c2ccc([N+](=O)[O-])o2)C(=O)N1', 5.4),
  ('OCCN1CCN(CCCN2c3ccccc3Sc3ccc(C(F)(F)F)cc32)CC1', 5.2),
  ('O=[N+]([O-])c1ccc(O)c([N+](=O)[O-])c1', 5),
  ('Cn1cc[nH]c1=S', 5.8),
  ('CCOC(=O)C(C)(C)Oc1ccc(Cl)cc1 [CLOFIBRATE]', 5.1),
  ('C[C@H]1C(=O)O[C@@H]2CCN3CC=C(COC(=O)[C@](C)(O)[C@]1(C)O)[C@H]23', 6.1);

Moving on to the next compound.
Task item: Item C=C(C)[C@H]1Cc2c(ccc3c2O[C@@H]2COc4cc(OC)c(OC)cc4[C@@H]2C3=O)O1 has what recorded Ret?
Reply: 5.5
